The reported measurements were obtained from patent US20260258115A1.

# target_under_test: RSV F on RSV subtype A virus (mKate-RSV A2) (respiratory syncytial virus A2, UniProt P03420 26-574)
# test_details: cell-based or functional assay
List of Neut IC50 subtype A values.

>  <binder>
ADI-25555 (antibody, V domains shown, full-length IgG) VH: QVQLVQSGGGLVKPGGSLRLSCAASGFTFSSYSMNWVRQAPGKGLEWVSSISSSSSYIYYADSVKGRFTISRDNAKNSLYLQMNSLRAEDTAVYYCARQRGGIAVAGTYFDLWGRGTLVTVSS VL: QPVLTQPPSVSGAPGQRVTISCTGSSSNIGAGYDVHWYQQLPGTAPKLLIYGNSNRPSGVPDRFSGSKSGTSASLAITGLQAEDEADYYCQSYDSTVVFGGGTKLTVL

>  <Neut IC50 subtype A, mg/L>
18.6

$$$$
>  <binder>
ADI-24792 (antibody, V domains shown, full-length IgG) VH: EVQLVESGGGLVKPGGSLRLSCAASGFIFSDYYMSWIRQAPGKGLEWVSNISGGSSFTNYADSVKGRFTISRDNAKNSLYLQMNSLRAEDTAVYYCARDLGYCSSNSCLDAFDIWGQGTTVTVSS VL: QSVLTQPPSVSGAPGQRVTISCTGSSSNIGAGYDVHWYQQLPGTAPKLLIYGNTNRPSGVPDRFSGSRSGTSASLAITGLQAEDEADYYCQSYDSSLSGSLFGGGTKVTVL

>  <Neut IC50 subtype A, mg/L>
0.27

$$$$
>  <binder>
ADI-14337 (antibody, V domains shown, full-length IgG; also called Ab 5) VH: EVQLVESGGGLVKPGGSLRLSCAASGFTFSSYSMNWVRQAPGKGLEWVSSISSSSSYIYYADSVKGRFTISRDNAKNSLYLQMNSLRAEDTAVYYCAREYYDSSGYTNWFDPWGQGTLVTVSS VL: QPVLTQPPSVSGAPGQRVTISCTGSSSNIGAGYDVHWYQQLPGTAPKLLIYGNSNRPSGVPDRFSGSKSGTSASLAITGLQAEDEADYYCQSYDSSLAWVFGGGTQLTVL

>  <Neut IC50 subtype A, mg/L>
0.1

$$$$
